The values you see were collected from patent US9079870B2.

PROPERTY NAME: melting point

Example results:
SMILES NOTATION: O=[N+]([O-])c1ccc(S(=O)(=O)N(CCCN(Cc2ccccc2)S(=O)(=O)c2ccc([N+](=O)[O-])cc2[N+](=O)[O-])Cc2ccccc2)c([N+](=O)[O-])c1
ASSAY VALUE: 186 to 189 °C
--
SMILES NOTATION: O=[N+]([O-])c1ccc(S(=O)(=O)N2CCOCC2)c([N+](=O)[O-])c1
ASSAY VALUE: 144 to 145 °C
--
SMILES NOTATION: COc1ccc(N(CCCN(Cc2ccccc2)S(=O)(=O)c2ccc([N+](=O)[O-])cc2[N+](=O)[O-])S(=O)(=O)c2ccc([N+](=O)[O-])cc2[N+](=O)[O-])cc1
ASSAY VALUE: 118 to 120 °C

// each compound listed below needs its melting point
1. COc1cccc(N(CCCN(Cc2ccccc2)S(=O)(=O)c2ccc([N+](=O)[O-])cc2[N+](=O)[O-])S(=O)(=O)c2ccc([N+](=O)[O-])cc2[N+](=O)[O-])c1
2. O=[N+]([O-])c1ccc(S(=O)(=O)N(CCCN(c2ccccc2F)S(=O)(=O)c2ccc([N+](=O)[O-])cc2[N+](=O)[O-])Cc2ccccc2)c([N+](=O)[O-])c1
3. O=[N+]([O-])c1ccc(S(=O)(=O)N2CCCCC2)c([N+](=O)[O-])c1
4. O=[N+]([O-])c1ccc(S(=O)(=O)N(CCCN(c2ccccc2)S(=O)(=O)c2ccc([N+](=O)[O-])cc2[N+](=O)[O-])Cc2ccccc2)c([N+](=O)[O-])c1

108 to 110 °C
151 to 153 °C
138 °C
151 to 153 °C

###

Assay: Cysteine-activated sulfur dioxide release, ion chromatography analysis of sulfite
Details: 5 min after treatment of compound (100 1M) with 10 equiv of cysteine in pH 7.4 phosphate buffer
Doc: threshold 80 µM (exclusive). Items with SO2 yield, 5 min beneath it return YES; others return NO.

Worked examples, 3 molecules total:
MOLECULE: COc1ccc(CNS(=O)(=O)c2ccc([N+](=O)[O-])cc2[N+](=O)[O-])cc1
ANSWER LABEL: YES
--
MOLECULE: COc1ccc(NS(=O)(=O)c2ccc([N+](=O)[O-])cc2[N+](=O)[O-])cc1
ANSWER LABEL: YES
--
MOLECULE: O=[N+]([O-])c1ccc(S(=O)(=O)NCCc2ccccc2)c([N+](=O)[O-])c1
ANSWER LABEL: YES

// next entry
Item O=[N+]([O-])c1ccc(S(=O)(=O)NCc2ccccc2)c([N+](=O)[O-])c1 [Compound 1, N-benzyl-2,4-dinitrophenylsulfonamide] : SO2 yield, 5 min beneath 80 µM, strictly? NO

###

Assay: Cysteine-activated sulfur dioxide release, ion chromatography analysis of sulfite
Conditions: 30 min after treatment of compound (100 1M) with 10 equiv of cysteine in pH 7.4 phosphate buffer
PROPERTY NAME: SO2 yield, 30 min (µM)
Answers are plain numbers, in µM.

MOLECULE: N#Cc1ccc(NS(=O)(=O)c2ccc([N+](=O)[O-])cc2[N+](=O)[O-])cc1 [Compound 11]
SO2 yield, 30 min (µM): 5
//
MOLECULE: C[C@H](NS(=O)(=O)c1ccc([N+](=O)[O-])cc1[N+](=O)[O-])c1ccccc1 [Compound 12]
SO2 yield, 30 min (µM): 97
//
MOLECULE: O=[N+]([O-])c1ccc(S(=O)(=O)NCCc2ccccc2)c([N+](=O)[O-])c1 [Compound 14]
SO2 yield, 30 min (µM): 100
//
MOLECULE: O=[N+]([O-])c1ccc(S(=O)(=O)N(CCc2ccccc2)Cc2ccccc2)c([N+](=O)[O-])c1 [Compound 20]
SO2 yield, 30 min (µM): 75
//
MOLECULE: CN(c1ccccc1)S(=O)(=O)c1ccc([N+](=O)[O-])cc1[N+](=O)[O-] [Compound 18]
SO2 yield, 30 min (µM): 94

Give one value of SO2 yield, 30 min per listed molecule.
1. CN(Cc1ccccc1)S(=O)(=O)c1ccc([N+](=O)[O-])cc1[N+](=O)[O-] [Compound 15]
2. O=[N+]([O-])c1ccc(S(=O)(=O)NCc2ccccc2)c([N+](=O)[O-])c1 [Compound 1, N-benzyl-2,4-dinitrophenylsulfonamide]

[100, 100]

###

Assay: Cysteine-activated sulfur dioxide release, ion chromatography analysis of sulfite
Settings: 30 min after commencement of the reaction with thiol; per mole of compound
PROPERTY NAME: % SO2 (30 min) (%)
One number for each entry, in %.

Study these solved cases before continuing.
SMILES NOTATION: O=[N+]([O-])c1ccc(S(=O)(=O)N(CCCN(c2ccccc2F)S(=O)(=O)c2ccc([N+](=O)[O-])cc2[N+](=O)[O-])Cc2ccccc2)c([N+](=O)[O-])c1
% SO2 (30 min), %: 141

SMILES NOTATION: O=[N+]([O-])c1ccc(S(=O)(=O)N(CCCN(c2ccccc2)S(=O)(=O)c2ccc([N+](=O)[O-])cc2[N+](=O)[O-])Cc2ccccc2)c([N+](=O)[O-])c1
% SO2 (30 min), %: 160

SMILES NOTATION: COc1cccc(N(CCCN(Cc2ccccc2)S(=O)(=O)c2ccc([N+](=O)[O-])cc2[N+](=O)[O-])S(=O)(=O)c2ccc([N+](=O)[O-])cc2[N+](=O)[O-])c1
% SO2 (30 min), %: 184

SMILES NOTATION: O=[N+]([O-])c1ccc(S(=O)(=O)N(CCCN(Cc2ccccc2)S(=O)(=O)c2ccc([N+](=O)[O-])cc2[N+](=O)[O-])Cc2ccccc2)cc1
% SO2 (30 min), %: 98

Attention now shifts to the item below.
// lookup % SO2 (30 min) for COc1ccccc1N(CCCN(Cc1ccccc1)S(=O)(=O)c1ccc([N+](=O)[O-])cc1[N+](=O)[O-])S(=O)(=O)c1ccc([N+](=O)[O-])cc1[N+](=O)[O-] 161

###

Test: Cysteine-activated sulfur dioxide release, ion chromatography analysis of sulfite
Details: 5 min after treatment of compound (100 1M) with 10 equiv of cysteine in pH 7.4 phosphate buffer
The label YES is reserved for SO2 yield, 5 min strictly under 40 µM; NO covers values equal to or above it.

Answered examples (3):
COMPOUND: O=[N+]([O-])c1ccc(S(=O)(=O)Nc2ccc(F)cc2)c([N+](=O)[O-])c1 [Compound 10]
ANSWER LABEL: YES
//
COMPOUND: CN(CCc1ccccc1)S(=O)(=O)c1ccc([N+](=O)[O-])cc1[N+](=O)[O-] [Compound 19]
ANSWER LABEL: NO
//
COMPOUND: O=[N+]([O-])c1ccc(S(=O)(=O)NCc2ccccc2C(F)(F)F)c([N+](=O)[O-])c1 [Compound 5]
ANSWER LABEL: NO

Given COc1ccccc1NS(=O)(=O)c1ccc([N+](=O)[O-])cc1[N+](=O)[O-] [Compound 8] , is recorded SO2 yield, 5 min strictly lower than 40 µM? NO

Just wondering, is SO2 yield, 5 min of O=[N+]([O-])c1ccc(S(=O)(=O)N(Cc2ccccc2)c2ccccc2)c([N+](=O)[O-])c1 [Compound 17] below 40 µM? NO

I wonder whether CN(Cc1ccccc1)S(=O)(=O)c1ccc([N+](=O)[O-])cc1[N+](=O)[O-] [Compound 15] has SO2 yield, 5 min below 40 µM. Can you tell? NO

Hello, I'm reviewing records and need to know if SO2 yield, 5 min of O=[N+]([O-])c1ccc(S(=O)(=O)N(CCc2ccccc2)Cc2ccccc2)c([N+](=O)[O-])c1 [Compound 20] is below 40 µM. Could you check? YES
